# Read-out: growth arrest and DNA damage 45 (GADD45A), GADD45A (gene 1647)
# experiment.description: LTEA_HepaRG_GADD45A: Life Technologies and Expression Analysis (LTEA) Assay for growth arrest and DNA damage 45 (GADD45A) using HepaRG (AID 2283458)
# stated.conditions: mRNA level, 48 h; actives raise or lower the signal
Activity calls are given as the source filed them. Rule for the calls: active = hit-call score of the fitted dose curve at least 0.9, where 1 is the maximum; inactive = score below 0.9.
Outcome codes: active, inactive

{"columns": ["compound", "group"],
 "data": [
  ["OCCCBr", "inactive"],
  ["CN(C)[C@@H]1C(=O)C(C(N)=O)=C(O)[C@@]2(O)C(=O)C3=C(O)c4c(O)cccc4[C@@](C)(O)[C@H]3C[C@@H]12", "inactive"],
  ["Cc1cccc(N)c1N", "inactive"],
  ["CCOc1cccc(C2(N3CCN(c4ccccc4)CC3)CCC(C)CC2)c1 (stereo not drawn)", "inactive"],
  ["C=CCc1ccc2c(c1)OCO2", "inactive"],
  ["Clc1ccc(C(c2ccc(Cl)cc2)C(Cl)Cl)cc1", "inactive"],
  ["ClC1=C(Cl)C2(Cl)C3C(Cl)C=CC3C1(Cl)C2(Cl)Cl (stereo not drawn)", "inactive"],
  ["O=C1CCCO1", "active"],
  ["CC(C)(O)c1cnn2c(-c3ccc(F)c(-c4c(F)cccc4C#N)c3)cnc2n1", "inactive"],
  ["ClCCOCCCl", "inactive"],
  ["Clc1ccc(Cl)c(Cl)c1", "active"],
  ["CCCCOC(=O)c1ccccc1C(=O)OCc1ccccc1", "inactive"],
  ["Nc1ccc(Cl)cc1N", "active"],
  ["CCN(CC)N=O", "inactive"],
  ["CC(C)(C)OOC(=O)c1ccccc1", "inactive"],
  ["C[N+](C)(C)CC1CO1 (stereo not drawn)", "inactive"],
  ["O=[N+]([O-])C(Br)(CO)CO", "inactive"],
  ["O=Cc1ccco1", "inactive"],
  ["O=P(OCCCl)(OCCCl)OCCCl", "inactive"],
  ["CNC(=O)Oc1cccc2c1OC(C)(C)C2", "active"],
  ["Nc1ccc(Cc2ccc(N)cc2)cc1", "inactive"],
  ["CN(C)c1ccc(C(=O)c2ccc(N(C)C)cc2)cc1", "inactive"],
  ["CCCCCOC(=O)c1ccccc1C(=O)OCCCCC", "inactive"],
  ["CS(=O)(=O)NC(=O)c1cc(Oc2ccc(C(F)(F)F)cc2Cl)ccc1[N+](=O)[O-]", "inactive"],
  ["c1ccc2c(c1)-c1cccc3cccc-2c13", "inactive"],
  ["CC(C)(C)C(O)(CCc1ccc(Cl)cc1)Cn1cncn1 (stereo not drawn)", "inactive"],
  ["CC(O)CCO (stereo not drawn)", "inactive"],
  ["N#CC(Br)Br", "inactive"],
  ["CN(C)c1ccccc1", "inactive"],
  ["c1ccc(NNc2ccccc2)cc1", "inactive"],
  ["[Cl-].[Cl-].[Hg+2]", "inactive"],
  ["CCOC(=O)[C@]1(c2ccccc2)Oc2ccccc2[C@@H]1N", "active"],
  ["CO[C@@H]1[C@H](OC(=O)NC(=O)CCl)CC[C@]2(CO2)[C@H]1[C@@]1(C)O[C@@H]1CC=C(C)C", "inactive"],
  ["O=C(N[C@H](c1ccccc1)[C@@H]1CN2CCC1CC2)c1c(Cl)ccc(C(F)(F)F)c1Cl", "active"],
  ["CCCSC(=O)N(CCC)CCC", "inactive"],
  ["Cc1ccc(N=C=O)cc1N=C=O", "inactive"],
  ["O=C(O)C1C2CCC(O2)C1C(=O)O (stereo not drawn)", "inactive"],
  ["C1=Cc2cccc3cccc1c23", "inactive"],
  ["O=C(Nc1ccccc1)c1ccccc1I", "inactive"],
  ["OCCCl", "inactive"],
  ["CN(C)C(=O)Nc1ccc(Cl)cc1", "inactive"],
  ["COP(=S)(OC)SCN1C(=O)c2ccccc2C1=O", "inactive"],
  ["COC(=O)c1ccccc1N", "inactive"],
  ["COC(=O)Nc1nc2ccccc2[nH]1", "inactive"],
  ["CCC[CH2][Sn]([Cl])([CH2]CCC)[CH2]CCC", "active"],
  ["Brc1ccc(Oc2ccccc2)cc1", "inactive"],
  ["Nc1ccc([N+](=O)[O-])cc1", "inactive"],
  ["C[C@]12C=CC3=C4CCC(=O)C=C4CC[C@H]3[C@@H]1CC[C@@H]2O", "inactive"],
  ["Nc1cc(Cl)cc(C(=O)O)c1Cl", "inactive"],
  ["c1ccc2c(c1)oc1ccccc12", "inactive"],
  ["Oc1ccccc1Cl", "inactive"],
  ["CC(C)(OOC(C)(C)c1ccccc1)c1ccccc1", "inactive"],
  ["c1ccc(C2CO2)cc1 (stereo not drawn)", "inactive"]
]}
